Provide the recorded IC50 for the entries that follow.
# Test system: Jurkat
# Experiment description: Cytotoxicity against human Jurkat cells after 48 hrs by MTT assay
# Assay type: functional, cell-based
One number for each entry, in µM.

1. CCCCOP(=O)(OCCCC)C(N[C@H](C)c1ccccc1)c1ccc2c(c1)OCO2 (stereo not given in full)
4

Now take the following compound into account.
Q: Answer with the recorded IC50 of CCCCOP(=O)(OCCCC)C(Nc1ccc2c(c1)OCO2)c1ccc2c(c1)OCO2 (stereo not given) only.
Ans: 80

---

# Experiment description: Cytotoxicity against human COLO320DM cells after 48 hrs by MTT assay
# Assay type: functional, cell-based
# Experimental setup: COLO 320DM
Label scheme for IC50: low group (below 40 µM), middle group (40 µM to below 90 µM), high group (90 µM or more)

A selection of reference data follows.
1) CCCCOP(=O)(OCCCC)C(Nc1cccc(F)c1)c1ccc2c(c1)OCO2 (configuration not stated)
middle group
2) CCOP(=O)(OCC)C(Nc1ccccc1)c1ccc(OC)c(OC)c1 (configuration not stated)
low group
3) CCOP(=O)(OCC)C(Nc1ccccc1O)c1ccc2c(c1)OCO2 (configuration not stated)
middle group

Q: Field: class (IC50) — entry: CCCCOP(=O)(OCCCC)C(N[C@H](C)c1ccccc1)c1ccc2c(c1)OCO2 (some centres not stated)
Ans: low group

Q: Field: class (IC50) — entry: CCOP(=O)(OCC)C(Nc1ccccc1)c1ccc(OC)c(O)c1 (configuration not stated)
Ans: middle group

Q: Field: class (IC50) — entry: CCCCOP(=O)(OCCCC)C(Nc1cccc(Cl)c1)c1ccc2c(c1)OCO2 (configuration not stated)
Ans: high group

Q: Field: class (IC50) — entry: O=c1[nH]cc(F)c(=O)[nH]1
Ans: low group

Q: Field: class (IC50) — entry: CCOP(=O)(OCC)C(Nc1ccccc1)c1ccc(F)cc1 (configuration not stated)
Ans: high group

Q: Field: class (IC50) — entry: CCOP(=O)(OCC)C(Nc1c(C)cccc1C)c1ccc2c(c1)OCO2 (configuration not stated)
Ans: high group

Q: Field: class (IC50) — entry: CCCCOP(=O)(OCCCC)C(Nc1ccc2c(c1)OCO2)c1ccc2c(c1)OCO2 (configuration not stated)
Ans: middle group

Q: Field: class (IC50) — entry: CCOP(=O)(OCC)C(Nc1ccccc1)c1ccc([N+](=O)[O-])cc1 (configuration not stated)
Ans: middle group

Cited source for all entries: ChEMBL document CHEMBL3108680
